# experiment.notes: Clearance in female C57BL/6J mouse at 50 mg/kg, ip
# Type: ADME, organism-based
# experimental.context: in vivo
assay.metric: CL/F (L/h/kg)
Answer in L/h/kg, number only, no unit symbol.

Reported CL/F for `O=C(Nc1ccc(N2CCC3(CCC3)CC2)c(C(F)(F)F)c1)c1ccc(C(=O)N2C[C@@H]3C[C@H]2CO3)nc1` was 0.864

So for `O=C(Nc1ccc(N2CCC3(CCC3)CC2)c(C(F)(F)F)c1)c1ccc(CN2C[C@@H]3C[C@H]2CO3)nc1` , the logged CL/F turned out to be 1.46

----------
# experiment.notes: Stability in human plasma assessed as parent compound remaining at 2 uM measured after 60 mins by LC-MS/MS analysis
# Format: ADME, cell-free
# experimental.context: read-out: Stability
Reported remaining at 1 h, 2 µM values for a set of molecules

record.smiles	assay.metric	measured
O=C(Nc1ccc(N2CCC3(CCC3)CC2)c(C(F)(F)F)c1)c1ccc(C(=O)N2C[C@@H]3C[C@H]2CO3)nc1	remaining at 1 h, 2 µM	~100%

Next, consider the following molecule.
Noted for `O=C(Nc1ccc(N2CCC3(CCC3)CC2)c(C(F)(F)F)c1)c1ccc(CN2C[C@@H]3C[C@H]2CO3)nc1` : its remaining at 1 h, 2 µM reads ~100%
